Target: UniProtKB Q4G017
Test: Displacement of [3H]clonidine from imidazoline I1 receptor in Sprague-Dawley rat kidney by liquid scintillation counting
Note to self: use Y only for IC50 readings below 60 µM; a reading exactly at 60 µM still gets N.

input: Record `Br.NCC[C@H]1CN=CN1` : is its IC50 strictly below 60 µM?
output: N

input: A record lists `Clc1cccc(Cl)c1NC1=NCCN1` . Is its IC50 below 60 µM?
output: Y

input: I wonder whether `Br.NCC[C@@H]1CN=CN1` has IC50 below 60 µM. Can you tell?
output: Y

input: Lab log: compare recorded IC50 with 60 µM; is it strictly lower for `CC(=O)NCC[C@H]1CN=CN1.CC(=O)O` ?
output: N

input: Dear reviewer, please state whether `Br.CC(=O)NCC[C@@H]1CN=C(N)N1` has IC50 strictly beneath 60 µM.
output: N

input: # check: IC50 < 60 µM for `Br.CN(C)CC[C@H]1CN=C(N)N1`
output: Y

input: For `CN(C)CC[C@H]1CN=CN1.Cl.Cl` , is the recorded IC50 below the cut-off of 60 µM?
output: N

* * *

Biological target: Adrenergic receptor alpha-2 (Rattus norvegicus, UniProt P22086+P19328+P22909)
Test: Displacement of [3H]RX821002 from alpha2 adrenoceptor in Sprague-Dawley rat kidney by liquid scintillation counting
Assay type: tissue-based
Record form. Attribute: Ki. Fill in for each entry.
Record the value in µM, omitting the unit from your answer.

input: If you can, please state the reported Ki value of `Br.NCC[C@H]1CN=C(N)N1` .
output: 11.77

input: Name the recorded Ki for `Br.CC1=NC[C@H](CCN)N1` .
output: 76.44

input: Given `Br.NCC[C@@H]1CN=CN1` , state its recorded Ki.
output: 62.07

input: Using the record for `Br.NCC[C@@H]1CN=C(N)N1` , report its Ki.
output: 18.82

* * *

Hi there, I'd appreciate the recorded pIC50 for every entry that follows.
Target: Nischarin (Rattus norvegicus)
Test: Displacement of [3H]clonidine from imidazoline I1 receptor in Sprague-Dawley rat kidney by liquid scintillation counting
In simple prose, pIC50 is minus the logarithm base ten of a concentration in moles per litre.

input: Quick check: pIC50 of `Br.CC1=NC[C@H](CCN)N1` ?
output: 3.94

input: May I ask what pIC50 has been recorded for `Br.NCC[C@H]1CN=C(N)N1` ?
output: 6.32

input: Bench note: what pIC50 did `Br.CC(=O)NCC[C@H]1CN=C(N)N1` show?
output: 3.63

* * *

Assay: Displacement of [3H]2BFI from imidazoline I2 receptor in Wistar rat brain by liquid scintillation counting
Result type: Ki (µM)
Number only, in µM; omit the unit.

input: Which Ki is reported for this compound? `NCCCCN=C(N)N`
output: 417

* * *

Target: Nischarin (Rattus norvegicus, UniProt Q4G017)
Sequence (Q4G017 whole entry): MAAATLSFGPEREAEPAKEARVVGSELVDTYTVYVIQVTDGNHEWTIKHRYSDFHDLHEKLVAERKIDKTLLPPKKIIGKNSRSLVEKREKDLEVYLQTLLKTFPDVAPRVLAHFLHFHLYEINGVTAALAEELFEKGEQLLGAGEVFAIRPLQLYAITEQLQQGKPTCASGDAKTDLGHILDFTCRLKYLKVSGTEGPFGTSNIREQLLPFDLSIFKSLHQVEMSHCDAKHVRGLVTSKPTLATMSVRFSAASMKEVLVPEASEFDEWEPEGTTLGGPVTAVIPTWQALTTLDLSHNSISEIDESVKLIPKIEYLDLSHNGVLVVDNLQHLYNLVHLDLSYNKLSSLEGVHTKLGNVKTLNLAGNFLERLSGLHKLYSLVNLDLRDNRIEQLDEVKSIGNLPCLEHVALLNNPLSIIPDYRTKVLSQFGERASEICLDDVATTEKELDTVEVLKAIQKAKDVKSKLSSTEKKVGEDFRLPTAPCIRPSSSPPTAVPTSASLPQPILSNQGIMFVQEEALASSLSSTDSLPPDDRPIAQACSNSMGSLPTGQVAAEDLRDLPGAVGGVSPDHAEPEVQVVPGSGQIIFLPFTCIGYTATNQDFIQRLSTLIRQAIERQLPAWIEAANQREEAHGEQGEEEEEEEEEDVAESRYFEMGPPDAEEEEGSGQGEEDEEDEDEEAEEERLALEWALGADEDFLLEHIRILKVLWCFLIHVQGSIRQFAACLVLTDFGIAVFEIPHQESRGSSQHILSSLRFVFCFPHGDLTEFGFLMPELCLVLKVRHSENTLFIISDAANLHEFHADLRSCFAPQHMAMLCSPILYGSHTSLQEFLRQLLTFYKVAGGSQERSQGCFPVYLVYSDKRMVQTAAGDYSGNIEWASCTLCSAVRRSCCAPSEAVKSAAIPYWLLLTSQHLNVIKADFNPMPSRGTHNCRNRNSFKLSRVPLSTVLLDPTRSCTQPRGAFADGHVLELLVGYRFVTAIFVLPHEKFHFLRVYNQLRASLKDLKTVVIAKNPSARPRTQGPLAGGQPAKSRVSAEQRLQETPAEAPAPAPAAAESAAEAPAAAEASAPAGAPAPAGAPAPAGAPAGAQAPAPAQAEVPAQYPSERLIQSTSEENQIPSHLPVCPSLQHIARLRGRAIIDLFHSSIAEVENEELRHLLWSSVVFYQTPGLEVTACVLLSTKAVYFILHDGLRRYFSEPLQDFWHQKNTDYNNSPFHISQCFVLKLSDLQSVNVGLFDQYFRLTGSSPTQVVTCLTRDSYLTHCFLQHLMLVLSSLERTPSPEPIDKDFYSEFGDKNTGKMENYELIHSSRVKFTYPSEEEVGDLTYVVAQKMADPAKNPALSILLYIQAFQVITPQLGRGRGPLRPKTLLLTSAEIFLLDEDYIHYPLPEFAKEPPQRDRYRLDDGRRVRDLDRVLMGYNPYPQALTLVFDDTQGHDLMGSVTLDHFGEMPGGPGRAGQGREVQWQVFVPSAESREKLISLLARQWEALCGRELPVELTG
Assay: Displacement of [3H]clonidine from imidazoline I1 receptor in Wistar rat kidney by liquid scintillation counting
Result type: IC50 (µM)
Quick reminder: number only, in µM, skip the unit.

input: Fill blank: measured IC50 of the compound NCCCCN=C(N)N [AGMATINE] is ____.
output: 36.5

* * *

Assay: Displacement of [3H]2BFI from imidazoline I2 receptor in Sprague-Dawley rat brain by liquid scintillation counting
Field: Ki. Provide a value for each of the molecules that follow.

input: May I ask what Ki has been recorded for `Br.CC(=O)NCC[C@H]1CN=C(N)N1` ?
output: > 100 µM

input: Field request: Ki | item: `Br.CC1=NC[C@H](CCN)N1`
output: 1.84 µM

input: What value of Ki has been recorded for this entry: `Clc1cccc(Cl)c1NC1=NCCN1`
output: 0.364 µM

input: So what does the record say about Ki for `Br.CC(=O)NCC[C@@H]1CN=C(N)N1` ?
output: > 100 µM

input: Entry `CN(C)CC[C@H]1CN=CN1.Cl.Cl` has what Ki?
output: > 100 µM

input: Ki for `Br.NCC[C@H]1CN=C(N)N1` ?
output: 55 µM

input: Consider the molecule `Br.NCC[C@@H]1CN=CN1` and give its measured Ki.
output: > 100 µM

input: Which Ki is reported for this molecule? `Br.CN(C)CC[C@H]1CN=C(N)N1`
output: > 100 µM

input: Can you share its Ki? I mean this molecule: `Br.NCC[C@H]1CN=CN1`
output: 65.8 µM

input: // lookup Ki for `Br.NCC[C@@H]1CN=C(N)N1`
output: > 100 µM

input: Reported Ki, molecule `CC(=O)NCC[C@H]1CN=CN1.CC(=O)O` : ____
output: > 100 µM
